# Experiment: Volume of distribution at steady state in uraemic patient (15 patients) at 100 mg, iv
# Reported Conditions: human, in vivo
Observable: Vd

• Cn1cnc([N+](=O)[O-])c1Sc1ncnc2nc[nH]c12 = 9.3 L/kg

---

# Experiment: Oral bioavailability in uraemic patient (8 patients) at 100 mg
# Reported Conditions: human, in vivo
Observable: bioavailability

• Cn1cnc([N+](=O)[O-])c1Sc1ncnc2nc[nH]c12 [AZATHIOPRINE] = 41%

---

# Experiment: Tmax in uraemic patient (8 patients) at 100 mg, po
# Reported Conditions: human, in vivo
Observable: Tmax

* Cn1cnc([N+](=O)[O-])c1Sc1ncnc2nc[nH]c12 | 1.5 h
